Biological target: T1, human α4β7 integrin on cells (human, UniProt P13612 34-1032; P26010 20-798)
T1 construct: whole, on cells; also called α4β7 cell (Hu); RPMI8866 cells
Assay: RPMI8866 cell adhesion to MAdCAM-1
Bridge positions count the residues as written; N and C are the ends. Square brackets hold non-standard residues; d marks the D form. Phe(4-tBu) = CC(C)(C)c1ccc(C[C@H](N)C(=O)O)cc1; NMeR = CN[C@@H](CCCNC(=N)N)C(=O)O; β3hE = N[C@@H](CCC(=O)O)CC(=O)O; NMeK = CN[C@@H](CCCCN)C(=O)O; Pen = CC(C)(S)[C@H](N)C(=O)O; βAla = NCCC(=O)O
MEASURED_PROPERTY: IC50

BINDER	MEASURED_PROPERTY	REPORTED_MEASUREMENT
Ac-[Pen][NMeR]SDTL[Pen][Phe(4-tBu)][β3hE][dK]-OH (disulfide 1-7; not fully specified (residue 10); printed as (Ac Pen N-Me-R S D T L Pen F(4tBu) b-H-E k OH)2 DIG, disulfide Pen-Pen; also: homodimer (…)2 DIG via D-Lys10 NZ) [SEQ ID NO: 168]	IC50	≤ 10 nM
Ac-[Pen][NMeR]SDTL[Pen]W[β3hE][NMeK]-NH2 (disulfide 1-7; not fully specified (residue 10); printed as (Ac Pen N-Me-R S D T L Pen W b-H-E N-Me-K NH2)2 DIG, disulfide Pen-Pen; also: homodimer (…)2 DIG via Lys10 NZ) [SEQ ID NO: 141]	IC50	≤ 10 nM
H-[βAla][Pen][NMeR]SDTL[Pen]WE-NH2 (disulfide 2-8; SMILES CC(C)C[C@@H]1NC(=O)[C@H]([C@@H](C)O)NC(=O)[C@H](CC(=O)O)NC(=O)[C@H](CO)NC(=O)[C@H](CCCNC(=N)N)N(C)C(=O)[C@@H](NC(=O)CCN)C(C)(C)SSC(C)(C)[C@@H](C(=O)N[C@@H](Cc2c[nH]c3ccccc23)C(=O)N[C@@H](CCC(=O)O)C(N)=O)NC1=O) [SEQ ID NO: 52]	IC50	> 100 nM
